Would you mind telling me the reported pEC50 of each entry?
# Tested on: Fusarium graminearum
# test: microbe, parasite or virus in culture
# Assay type: cell-based
# assaySetup: 168 h, read-out: ED50
Give bare numbers, as −log10 of the molar value.

>>> print(df.to_string())
                                   compound  measurement
0  C[S+]([O-])CCCCCCCCN=C=S (centres unmarked)         3.48

In the following, a different compound is considered.
Give reported pEC50 value for CS(=O)(=O)CCCCCCCCN=C=S
3.27

---

# Tested on: Alternaria radicina
# test: In vitro bioassay, mycelia growth on PDA (Example 1)
# Format: cell-based
# assaySetup: 168 h, read-out: ED50
Would you mind telling me the reported pEC50 of each entry?
Numbers only, as −log10 of the molar value.

>>> print(df.to_string())
                                   compound  assayreadout  measurement
0  C[S+]([O-])CCCCCCCCN=C=S (centres unmarked) [100/0]         pEC50         3.64

In the following, a different compound is considered.
Give reported pEC50 value for CS(=O)(=O)CCCCCCCCN=C=S [0/100]
3.12
